molecular target: MK2 (Homo sapiens (Human), UniProt P49137); assay: MK2 cellular assay, total and phospho-Hsp27 (Serine 78) by MSD ELISA (Thp1); type: cell-based; conditions: Thp-1 cells, 1 hour compound, 50 ng/mL LPS 45 minutes, p-HSP27 (Ser78)/total HSP27; read-out: pHSP27 signaling EC50
Sequence (P49137 whole entry): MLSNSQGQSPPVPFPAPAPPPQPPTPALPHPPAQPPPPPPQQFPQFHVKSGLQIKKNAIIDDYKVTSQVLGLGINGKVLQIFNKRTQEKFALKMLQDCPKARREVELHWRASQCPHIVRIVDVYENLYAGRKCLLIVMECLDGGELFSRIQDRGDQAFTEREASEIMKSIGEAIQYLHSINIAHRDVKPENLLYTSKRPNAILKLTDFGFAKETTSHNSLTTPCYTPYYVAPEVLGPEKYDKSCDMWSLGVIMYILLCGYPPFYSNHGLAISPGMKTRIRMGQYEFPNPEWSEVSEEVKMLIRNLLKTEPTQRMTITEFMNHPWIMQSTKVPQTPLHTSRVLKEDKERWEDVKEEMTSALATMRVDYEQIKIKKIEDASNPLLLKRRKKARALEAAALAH
pEC50: −log10 of the molar value.
Entries annotated with measured pEC50

Q: Entry under review: C[C@@H]1CNc2c(sc3ccc4nc(Sc5ccnc(Cl)n5)ccc4c23)C(=O)N1 . Reported pEC50?
A: < 6.00

Q: Entry under review: COCc1nc(Cl)cc(Oc2ccc3c(ccc4sc5c(c43)NC[C@@H](C)NC5=O)n2)n1 . Reported pEC50?
A: > 7.00

Q: Entry under review: C[C@@H]1CNc2c(sc3ccc4nc(Oc5nc(Cl)ncc5CN5CCC[C@H]5C)ccc4c23)C(=O)N1 . Reported pEC50?
A: > 7.00

Q: Entry under review: C[C@@H]1CNc2c(sc3ccc4nc(Oc5nc(Cl)nc6c5CN(C)CC6)ccc4c23)C(=O)N1 . Reported pEC50?
A: > 7.00

Q: Entry under review: O=C1N[C@H](CO)CNc2c1sc1ccc3nc(Nc4cc(F)ncn4)ccc3c21 . Reported pEC50?
A: < 6.00

Q: Entry under review: C[C@@H]1CNc2c(sc3ccc4nc(N(C)c5nc(Cl)ncc5C(N)=O)ccc4c23)C(=O)N1 . Reported pEC50?
A: < 6.00

Q: Entry under review: NC(=O)c1cnc(Cl)nc1Nc1ccc2c(ccc3sc4c(c32)NC[C@@H](CO)NC4=O)n1 . Reported pEC50?
A: 6.30 to 7.00

Q: Entry under review: C[C@@H]1CNc2c(sc3ccc4nc(Oc5nc(Cl)ncc5C5=CCN(C)CC5)ccc4c23)C(=O)N1 . Reported pEC50?
A: 6.30 to 7.00

Q: Entry under review: C[C@@H]1CNc2c(sc3ccc4nc(Nc5nc(Cl)ncc5C(N)=O)ccc4c23)C(=O)N1 . Reported pEC50?
A: > 7.00

---

target: MK2 (Homo sapiens (Human), UniProt P49137); experiment: MK2 cellular assay, total and phospho-Hsp27 (Serine 78) by MSD ELISA (Thp1); format: cell-based; conditions: Thp-1 cells, 1 hour compound, 50 ng/mL LPS 45 minutes, p-HSP27 (Ser78)/total HSP27; read-out: pHSP27 signaling EC50
pEC50: −log10 of the molar value.
endpoint: pEC50

Recorded results for 10 compounds are shown here.
NC[C@@H]1CNc2c(sc3ccc4nc(Nc5cc(F)ncn5)ccc4c23)C(=O)N1    < 6.00
CO[C@@H]1CCCN(Cc2cnc(Cl)nc2Oc2ccc3c(ccc4sc5c(c43)NC[C@@H](C)NC5=O)n2)C1    > 7.00
C[C@@H]1CNc2c(sc3ccc4nc(Oc5nc(Cl)nc(N6CCCCC6)n5)ccc4c23)C(=O)N1    < 6.00
C[C@@H]1CNc2c(sc3ccc4nc(Nc5cc(F)ncc5C(N)=O)ccc4c23)C(=O)N1    < 6.00
C[C@@H]1CNc2c(sc3ccc4nc(Oc5nc(Cl)ncc5COC5(C)COC5)ccc4c23)C(=O)N1    6.30 to 7.00
C[C@@H]1CNc2c(sc3ccc4nc(Oc5cncc(Cl)n5)ccc4c23)C(=O)N1    < 6.00
C[C@@H]1CNc2c(sc3ccc4nc(Nc5nccc(Cl)n5)ccc4c23)C(=O)N1    < 6.00
CN(C)C[C@@H]1CNc2c(sc3ccc4nc(Nc5cc(F)ncn5)ccc4c23)C(=O)N1    < 6.00
C[C@@H]1CNc2c(sc3ccc4nc(Oc5nc(F)nc6c5COC6)ccc4c23)C(=O)N1    > 7.00
COCCOc1nc(Cl)cc(Nc2ccc3c(ccc4sc5c(c43)NC[C@@H](C)NC5=O)n2)n1    6.30 to 7.00

Q: Notebook entry, MK2 (Homo sapiens (Human), UniProt P49137) assay: pEC50 of C[C@@H]1CNc2c(sc3ccc4nc(Nc5cc(Cl)nc(OC6CCCN(C)C6)n5)ccc4c23)C(=O)N1 (some centres unmarked) = ?
A: 6.00 to 6.30

---

target: MK2 (Homo sapiens (Human)); test: MK2 cellular assay, total and phospho-Hsp27 (Serine 78) by MSD ELISA (Thp1); assay type: cell-based; details: Thp-1 cells, 1 hour compound, 50 ng/mL LPS 45 minutes, p-HSP27 (Ser78)/total HSP27; read-out: pHSP27 signaling EC50
pEC50: −log10 of the molar value.
Entries annotated with measured pEC50

Q: Entry under review: COCCN(C)Cc1cnc(Cl)nc1Oc1ccc2c(ccc3sc4c(c32)NC[C@@H](C)NC4=O)n1 [I-90] . Reported pEC50?
A: > 7.00

Q: Entry under review: CO[C@H]1CCCN(Cc2cnc(Cl)nc2Oc2ccc3c(ccc4sc5c(c43)NC[C@@H](C)NC5=O)n2)C1 [I-106] . Reported pEC50?
A: > 7.00

Q: Entry under review: O=C1N[C@H](CO)CNc2c1sc1ccc3nc(Nc4cc(Cl)ncn4)ccc3c21 [I-22] . Reported pEC50?
A: 6.00 to 6.30

Q: Entry under review: Cc1nc(F)cc(Oc2ccc3c(ccc4sc5c(c43)NC[C@@H](C)NC5=O)n2)n1 [I-65] . Reported pEC50?
A: 6.30 to 7.00
